Test system: Escherichia coli
Assay: Antibacterial activity against Escherichia coli by agar dilution method
Assay type: functional
outcome-measure: MIC (µg/mL)
Enter your answer as a number in µg/mL; do not include the unit.

Would you please look over these solved cases?
molecule | MIC (µg/mL)
Oc1ccc(Br)cc1C1=NOC(c2cc3ccccc3n3nnnc23)C1 (centres undefined) | 25
COc1ccc2c(c1)cc(C1CC(c3cc(Br)ccc3O)=NN1)c1nnnn12 (centres undefined) | 50
COc1cccc2cc(/C=C/C(=O)c3cc(Br)ccc3O)c3nnnn3c12 | 50

Query :: Need MIC of Oc1ccc(Br)cc1C1=NNC(c2cc3ccccc3n3nnnc23)C1 (centres undefined) , thanks.
Result :: 50

Entry source: ChEMBL document CHEMBL5260848
